# Test system: MDA-MB-435 melanoma
# protocol-notes: NCI-60 one-dose screen, 48 h (100 = growth as untreated, 0 = no growth, -100 = all killed)
# condition-label: 10 µM
This is part of a sample that, as a whole, favours compounds with a hit. Of some 83,000 tested, about 20% had one in any assay.
recorded-endpoint: growth (%)
Give the value in % but do not write % after it.

Reference set (6 entries):
>  <molecule>
O=C(Cn1cc(CSc2nnc3oc4ccccc4n23)nn1)Nc1cccc(Cl)c1

>  <units>
%

>  <growth>
74.4

$$$$
>  <molecule>
CO[C@@H]1CSS[C@H]1Cn1nc(-c2ccc(Oc3ccccc3)cc2)c2c(N)ncnc21

>  <units>
%

>  <growth>
17.3

$$$$
>  <molecule>
CC1=C(C(=O)OC(C)C)C(c2ccc(O)cc2)NC(=S)N1 (centres undefined)

>  <units>
%

>  <growth>
110

$$$$
>  <molecule>
Cc1ccc(CSc2nc(Cl)c(C#N)c(-c3ccc(F)cc3)n2)cc1

>  <units>
%

>  <growth>
99.7

$$$$
>  <molecule>
O=C1N/C(=N\c2nccs2)S/C1=C\c1cccs1

>  <units>
%

>  <growth>
41.9

$$$$
>  <molecule>
Cc1cc2nc3c4ccccc4n(CCO)c3nc2cc1C

>  <units>
%

>  <growth>
94.6

$$$$

**Query** // lookup growth for `COc1ccc(-c2cc(C(=O)N=Nc3c(O)[nH]c4ccc(F)cc34)c3ccccc3n2)cc1`
**Result** 65.2

**Query** // lookup growth for `COc1ccc2[nH]c(O)c(N=NC(=O)COc3ccc(NC(=O)Nc4ccc(Cl)cc4)cc3)c2c1`
**Result** -52

**Query** // lookup growth for CC1(c2ccccc2)NC(=O)N(CC(=O)Nc2ccc(C(=O)/C=C/c3ccc(Br)cc3)cc2)C1=O (centres undefined)
**Result** -44

**Query** // lookup growth for `CCOC(=O)c1c(CSc2ccccc2)n(C)c2cc(CN(C)C)c(O)c(CN(C)C)c12`
**Result** 54

----------
# System: SK-MEL-28 melanoma
# protocol-notes: NCI-60 one-dose screen, 48 h
# condition-label: 10 µM
The panel holds about 83,000 compounds, 20% with a hit somewhere; the sample as a whole holds those more often. Calls of active or inactive are those of the source. The calls were made as follows: active = growth percent below 10; inactive = the rest.
Respond using exactly one of the listed classes: 1.0 for active, 0.0 for inactive

>  <compound>
O=C1N/C(=N\c2nccs2)S/C1=C\c1cccs1

>  <assigned-category>
0.0

$$$$

**Query** What is the recorded call for this compound in the test? `CCOC(=O)N/C(=C1/OCCN1C)[P+](c1ccccc1)(c1ccccc1)c1ccccc1`
**Result** 0.0

**Query** What is the recorded call for this compound in the test? `COc1ccc(CCN2C(=O)/C(=C/c3csc(C#N)n3)SC2=S)cc1OC`
**Result** 0.0

**Query** What is the recorded call for this compound in the test? `O=C(Nc1cccc([N+](=O)[O-])c1)Nc1cccc([N+](=O)[O-])c1`
**Result** 0.0

**Query** What is the recorded call for this compound in the test? `COc1ccc(-c2cc(-c3cc(C(=O)c4ccccc4)n4ccc(C)cc34)nc(N)c2C#N)cc1`
**Result** 0.0

**Query** What is the recorded call for this compound in the test? `CC1(C)CC[C@]2(C(=O)Nc3ccccc3)CC[C@]3(C)C(=CC[C@@H]4[C@@]5(C)CC[C@H](N)C(C)(C)[C@@H]5CC[C@]43C)[C@H]2C1`
**Result** 0.0

**Query** What is the recorded call for this compound in the test? `Cc1cc(=O)oc2cc(OCCCCOc3ccc(/C=C/C(=O)Nc4ccccc4[N+](=O)[O-])cc3)ccc12`
**Result** 0.0

**Query** What is the recorded call for this compound in the test? `O=S(=O)(c1ccc(Cl)cc1)c1nc(-c2ccccc2)oc1S(=O)(=O)c1ccc(Cl)cc1`
**Result** 0.0

**Query** What is the recorded call for this compound in the test? `Nc1nc(Nc2ccc(Cl)cc2)nn1Cc1cccc(Br)c1`
**Result** 0.0

**Query** What is the recorded call for this compound in the test? `Cc1ccc(-c2nc3ccc(C(=O)N=Nc4c(O)[nH]c5ccc(Cl)cc45)cc3[nH]2)cc1`
**Result** 1.0

**Query** What is the recorded call for this compound in the test? `C=C(C)[C@@H]1CC[C@]2(C)[C@H](CC=C3[C@@H]4CC(C)(C)CC[C@]4(C(=O)N4CCOCC4)CC[C@]32C)[C@@]1(C)CCCN`
**Result** 1.0

**Query** What is the recorded call for this compound in the test? `O=C(Nc1cccc(C(F)(F)F)c1)c1cncc(C#Cc2cnc3ccc(N4CCOCC4)nn23)c1`
**Result** 1.0

**Query** What is the recorded call for this compound in the test? `CC(=O)c1cc(C(=O)N2c3ccccc3Sc3ccccc32)n2ccc(C)cc12`
**Result** 0.0

**Query** What is the recorded call for this compound in the test? `CNCc1cccc2c1OCCCCCC[C@@](C)(O)CC1(CC1)S(=O)(=O)c1ccc(cc1)-c1cnc(N)c(n1)C(=O)N2`
**Result** 1.0

**Query** What is the recorded call for this compound in the test? `O=C(CNc1nc(-c2ccccc2)cs1)Nc1ccc(Cl)cc1[N+](=O)[O-]`
**Result** 1.0

**Query** What is the recorded call for this compound in the test? `O=C(Nc1ccc(Cl)c([N+](=O)[O-])c1)Nc1ccc(Cl)c([N+](=O)[O-])c1`
**Result** 1.0

**Query** What is the recorded call for this compound in the test? `CN1CCO/C1=C(/NC(=O)c1ccc(Cl)cc1)[P+](c1ccccc1)(c1ccccc1)c1ccccc1`
**Result** 0.0

**Query** What is the recorded call for this compound in the test? `CN1CCc2c(sc3ncnc(N/N=C/c4ccc5ccccc5c4)c23)C1`
**Result** 0.0
